Assay: NCI Yeast Anticancer Drug Screen. Data for the sgs1 mgt1 strain (AID 161);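 also: 0% = growth of cultures given vehicle only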
Conditions: S. cerevisiae sgs1 mgt1 strain, at 50.0 µM, stronger effect = higher value
The panel holds about 79,000 compounds, 15% with a hit somewhere; the sample as a whole holds those more often.
attribute_measured: growth inhibition (%)
Answer in %, number only, no unit symbol.

COc1cccc(C2CC(C)(N3CCCC3)Oc3cc4c(cc32)OCO4)c1O (stereo not given)    10
C[N+](C)(CCNCC(N)=O)CC(N)=O    -19.1
Nc1nc(-c2ccc(F)cc2)cc(-c2cc(-c3ccc(F)cc3)nc(N)n2)n1    -20.9
Cc1ccc2c(ccc3ccccc32)n1    60
C=C1C(=O)O[C@@H]2[C@H]1CC[C@H](C)[C@]1(O)CCC(=O)[C@@]21C    14.2

# growth inhibition (molecule: CC(=O)c1cc2ccccc2o1 ) is -4

# growth inhibition (molecule: CCOC(=O)c1ccc(NCc2cccc([N+](=O)[O-])c2)cc1 ) is 10.4

====

Assay: NCI Yeast Anticancer Drug Screen. Data for the cln2 rad14 strain (AID 165);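 also: 0% = growth equal to vehicle treated cultures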
Conditions: S. cerevisiae cln2 rad14 strain, at 50.0 µM, stronger effect = higher value
This is part of a sample that, as a whole, favours compounds with a hit. Of some 79,000 tested, about 15% had one in any assay.
growth inhibition reference
Answer in %, number only, no unit symbol.

CC(=O)OC1CCC2(C)C(CCC3C2CCC2(C)C(C(C)C(=O)O)CCC32)C1 (stereo not drawn)    10.8
O=C(c1cc2ccccc2s1)c1ccccc1Cc1cccc2ccccc12    21.2

# growth inhibition (compound: Cc1ccnc(N=C(N)Nc2cc(C)ccn2)c1 ) is 11.2

# growth inhibition (compound: Cc1cc(C)n(-c2ccc(Cl)nn2)n1 ) is -27.6

====

growth inhibition reference
Assay: NCI Yeast Anticancer Drug Screen. Data for the mec2-1 strain (AID 157)
Settings: S. cerevisiae mec2-1 strain, at 50.0 µM, stronger effect = higher value
This is part of a sample that, as a whole, favours compounds with a hit. Of some 79,000 tested, about 15% had one in any assay.
Answer in %, number only, no unit symbol.

Worked cases, growth inhibition given:
CC(=O)c1cccc(NC(=O)Oc2ccc(C(=O)OCc3ccccc3)cc2)c1    88.9
Nc1ccc(S(=O)(=O)Nc2nccs2)cc1    -17.2
CCOCCC(O)CC (configuration not stated)    -31.2

# growth inhibition (compound: CC(C)(C)C1=CC(=O)C(C(C)(C)C)=CC1=O ) is 3.2

# growth inhibition (compound: CCOC(=O)c1csc(N)n1 ) is 7.35

# growth inhibition (compound: CCOCCOCCOC12C(=O)C(Cl)=C(Cl)C(=O)C13C1CC2C(Cl)C13 (configuration not stated) ) is 99.5

# growth inhibition (compound: CC1(C)OC2(CC1C1(C)C=CC(=O)O1)CC1(O)C(CCC34CC13C(=O)OC4c1ccoc1)O2 (configuration not stated) ) is 4.25

# growth inhibition (compound: CSC(=NC(=O)c1c(Cl)cccc1Cl)SC ) is 14.2

# growth inhibition (compound: CCOC(=O)c1ccc(NCc2ccc3oc(=O)c(-c4ccccc4)nc3c2)cc1 ) is -16.6

# growth inhibition (compound: Brc1ccccc1-c1nc2ccccc2[nH]1 ) is -4.4

# growth inhibition (compound: COCC(=O)c1ccccc1-c1ccccc1 ) is -2.65

# growth inhibition (compound: CCOC(=O)c1ccccc1C(=O)c1ccccc1O ) is -18

# growth inhibition (compound: Cc1cc(Br)ccc1NC1=CC(=O)C(=O)c2ccccc21 ) is 19.6

# growth inhibition (compound: Nc1ccc(F)cc1 ) is -1.5

Source listed as PubChem BioAssay (NCI).
